test: Cell Viability - LYMP2-004 (AID 966); details: LYMP2-004 lymphoblastoid cell viability, qHTS; series mostly up to 92.2 µM;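 further: cells exposed to compound for 24 h; nearly all actives have a fitted effect of over 65% in size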
Results filed as inconclusive are left out. Activity calls are given as the source filed them. The call rests on the fitted dose curve; in most records, active means well fitted cell-killing curve with a large enough effect; inconclusive means small, poorly fitted or top-dose-only effect, or effect the other way; inactive means no such curve, though single readings can be large or run the other way.
Your reply should match one of these outcome classes. YES (active), NO (inactive)

Solved entries (count: 5):
query: Kindly provide the recorded test outcome for the following molecule: O=c1[nH]cnc2c1ncn2[C@H]1CC[C@@H](CO)O1
result: NO

query: What about this molecule? CCCNC(=O)NS(=O)(=O)c1ccc(Cl)cc1
result: NO

query: What about this molecule? O=c1cc(-c2ccc(O)cc2)oc2cc(O)cc(O)c12
result: NO

query: What about this molecule? CCn1cc(C(=O)O)c(=O)c2ccc(C)nc21
result: NO

query: What about this molecule? O=C(O)c1cc(O)c2c(c1)C(=O)c1cccc(O)c1C2=O
result: NO

Continuing:
query: Kindly provide the recorded test outcome for the following molecule: CN(C)CCC(c1ccccc1)c1ccccn1 (stereo not drawn)
result: NO

query: What about this molecule? CC1=C(/C=C/C(C)=C/C=C/C(C)=C/C(=O)Nc2ccc(O)cc2)C(C)(C)CCC1
result: YES

query: What about this molecule? CCCCC1C(=O)N(c2ccccc2)N(c2ccccc2)C1=O
result: NO

---

assay: qHTS drug screen for cell cycle checkpoint inhibitors in PARPi-resistant BRCA-mutant ovarian cancer cell lines. (AID 1963452); settings: PEO1/OlaR viability, CellTiter-Glo luminescence, 96 h; hits give low values
Below is a list of entries, each paired with its recorded Z-AUC value.
Please give the numeric answer without any surrounding text.

query: Which Z-AUC reading was recorded for the compound COc1ccc(Cc2nccc3cc(OC)c(OC)cc23)cc1OC ?
result: -1.7

Continuing:
query: Which Z-AUC reading was recorded for the compound CC(C)(Cc1ccc2ccccc2c1)NC[C@@H](O)COc1cccc(Cl)c1C#N ?
result: 0.779

query: What about this compound? O=c1cc(-c2ccccc2)oc2cc(O)cc(O)c12
result: 1.05

query: What about this compound? C=C1C(=O)[C@@]23C(CC[C@@H]1[C@H]2O)[C@@]12CO[C@]3(O)[C@@H](O)[C@@H]1C(C)(C)CC[C@@H]2O (stereo not given in full)
result: -0.857

query: What about this compound? CNC(=O)c1ccc2cc(C3(O)CCn4cncc43)ccc2c1 (stereo not given)
result: -0.914

query: What about this compound? Cc1c(NC(=O)c2ccc(C(C)(C)C)cc2)cccc1-c1cn(C)c(=O)c(Nc2ccc(C(=O)N3CCOCC3)cc2)n1
result: 1.16

query: What about this compound? Cc1ccc(C(C)(O)c2nc3ccccc3s2)c(C)c1 (stereo not given)
result: 0.398

query: What about this compound? COc1cc2ncnc(-n3nc(-c4ccccn4)nc3N)c2cc1OC
result: -0.168

query: What about this compound? CCCCCCCCCCCC1=C(O)C(=O)C=C(O)C1=O
result: 1.62

query: What about this compound? Cc1ccc(Nc2cc(-c3cccc(N4C(=O)c5ccccc5C4=O)c3)ncn2)cc1NS(C)(=O)=O
result: -0.648

---

assay: Quantitative High-Throughput drug screen in 47 multiple myeloma cell lines against the NCATS MIPE library collection: AMO1_DSMZ cell viability assay (AID 1918927; further: nearly all actives have a fitted effect of over 30% in size); conditions: AMO1 myeloma cells viability, CellTiter-Glo ATP luminescence, 48 h; series mostly up to 45.8 µM
Results filed as inconclusive are left out. Activity calls are given as the source filed them. The call rests on the fitted dose curve; in most records, active means well fitted cell-killing curve with a large enough effect; inconclusive means small, poorly fitted or top-dose-only effect, or effect the other way; inactive means no such curve, though single readings can be large or run the other way.
Your reply should match one of these outcome classes. active, inactive

Solved entries (count: 8):
query: Kindly provide the recorded test outcome for the following compound: CC#CCn1c(N2CCC[C@@H](N)C2)nc2c1c(=O)n(Cc1nc(C)c3ccccc3n1)c(=O)n2C
result: inactive

query: What about this compound? CC1(C)CCC(CN2CCN(c3ccc(C(=O)NS(=O)(=O)c4ccc(NCC5CCOCC5)c([N+](=O)[O-])c4)c(Oc4cnc5[nH]ccc5c4)c3)CC2)=C(c2ccc(Cl)cc2)C1
result: active

query: What about this compound? COC(=O)C1=CO[C@@H](O)[C@@H]2C(CO)=CC[C@@H]12
result: active

query: What about this compound? CN1CCN(CCOc2cc(OC3CCOCC3)c3c(Nc4c(Cl)ccc5c4OCO5)ncnc3c2)CC1
result: active

query: What about this compound? COCCOC(=O)C1=C(C)NC2=C(C(=O)CC(c3ccccc3OC)C2)C1c1cccc(O)c1 (stereo not given)
result: active

query: What about this compound? O=C(O)C(O)Cc1ccc(O)c(O)c1 (stereo not given)
result: inactive

query: What about this compound? C[C@H](NC(=O)C(=O)Nc1ccccc1C(C)(C)C)C(=O)N[C@@H](CC(=O)O)C(=O)COc1c(F)c(F)cc(F)c1F
result: active

query: What about this compound? COc1ccc(-c2nc(N3CCOCC3)c3sc(CN(C)c4ncc(C(=O)NO)cn4)cc3n2)cn1
result: active

Continuing:
query: Kindly provide the recorded test outcome for the following compound: CN(C)CCC=C1c2ccccc2COc2ccc(CC(=O)O)cc21
result: inactive
